FYI, the data here is from ChEMBL document CHEMBL4196055.

Test system: SMMC-7721
Protocol Details: Antiproliferative activity against human SMMC7721 cells after 24 hrs by CCK-8 assay
Assay type: functional, cell-based
Test Parameters: SMMC-7721, 24 h
I'd be grateful if you could share measured pIC50 for these entries.
# reply with the number alone; pIC50 is -log10 of concentration in mol/L

// query Value wanted: pIC50 (SMMC-7721) of entry C=C1C(=O)O[C@@H]2C3=C(C)[C@@H](OC(=O)/C=C/c4ccc(C(F)(F)F)cc4)CC3[C@](C)(OC(C)=O)CC[C@@H]12 (some centres not stated)
// result 5.21

// query Value wanted: pIC50 (SMMC-7721) of entry C=C1C(=O)O[C@@H]2C3=C(C)[C@@H](OC(=O)/C=C/c4ccc(C)cc4)CC3[C@](C)(OC(C)=O)CC[C@@H]12 (some centres not stated)
// result 5.30

// query Value wanted: pIC50 (SMMC-7721) of entry C=C1C(=O)O[C@@H]2C3=C(C)[C@@H](OC(=O)c4ccc(CCCCC)cc4)CC3[C@](C)(OC(C)=O)CC[C@@H]12 (some centres not stated)
// result 4.73

// query Value wanted: pIC50 (SMMC-7721) of entry C=C1C(=O)O[C@@H]2C3=C(C)[C@@H](OC(=O)/C=C/c4ccc(Br)cc4)CC3[C@](C)(OC(C)=O)CC[C@@H]12 (some centres not stated)
// result 5.22

// query Value wanted: pIC50 (SMMC-7721) of entry O=c1[nH]cc(F)c(=O)[nH]1 [FLUOROURACIL]
// result 4.90

// query Value wanted: pIC50 (SMMC-7721) of entry C=C1C(=O)O[C@@H]2C3=C(C)[C@@H](OC(=O)c4ccc(OC(F)(F)F)cc4)CC3[C@](C)(OC(C)=O)CC[C@@H]12 (some centres not stated)
// result 5.21

// query Value wanted: pIC50 (SMMC-7721) of entry C=C1C(=O)O[C@@H]2C3=C(C)[C@@H](OC(=O)/C=C/c4ccc(Cl)cc4)CC3[C@](C)(OC(C)=O)CC[C@@H]12 (some centres not stated)
// result 5.39
